- run description: Pharmacokinetics of intraperitoneal or intravenous injection in CD1 mice (plasma, LC/MS/MS)
- Assay type: in vivo
- measurement setup: male, CD1, mouse, plasma, iv, 1 mg/kg, IV 1.0 mg/kg, 4 h, read-out: Conc. Mouse 2
readout label: concentration at 4 h
Units required after the number.

// lookup concentration at 4 h for "COc1cc2c(Oc3ccc(NC(=O)C4(C(=O)Nc5ccc(F)cc5)CC4)cc3F)ccnc2cc1OCCCOCCCOCCC(=O)N[C@H](C(=O)N1C[C@H](O)C[C@H]1C(=O)NCc1ccc(-c2scnc2C)cc1)C(C)(C)C"
15.4 ng/mL
